target_or_test_system: UniProt:Q15858
assay_name: E-VIPR optical membrane potential assay with electrical stimulation
condition_details: sodium channel inhibition; read-out: Binned Activity Data (IC50)
pIC50: −log10 of the molar value.
The following compounds are shown together with reported pIC50 values.

Sample answers from the record:
{"compound": "COc1cc(OC(C)(C)C#N)ccc1C(=O)N1CCC2(CC1)Oc1ccccc1-c1c2cnn1C [Compound 734]", "target_or_test_system": "UniProt:Q15858", "pIC50": "≥ 5.70"}
{"compound": "COc1ccc(C(=O)N2CCC3(CC2)Oc2ccccc2-n2c(C(F)(F)F)ccc23)cc1Cl [Compound 871]", "target_or_test_system": "UniProt:Q15858", "pIC50": "≥ 5.70"}
{"compound": "COc1ccc(C(=O)N2CCC3(CC2)Oc2ccccc2-c2c3cnn2C)cc1C(F)(F)F [Compound 143]", "target_or_test_system": "UniProt:Q15858", "pIC50": "5.30 to 5.70"}

**Query** Entry COc1cc(C(=O)N2CCC3(CC2)Oc2ccccc2-n2c(C(C)=O)ccc23)ccc1OC(C)C [Compound 114] has what pIC50?
**Result** ≥ 5.70

**Query** Entry COc1ccc(OC)c(C(=O)N2CCC3(CC2)Oc2cc(Cl)ccc2-n2cccc23)c1 [Compound 189] has what pIC50?
**Result** ≥ 5.70

**Query** Entry CC(C)NS(=O)(=O)c1ccc(C(=O)N2CCC3(CC2)Oc2ccccc2-c2nn(C)cc23)cc1 [Compound 501] has what pIC50?
**Result** ≥ 5.70

**Query** Entry Cn1ncc2c1-c1cc(F)ccc1OC21CCN(C(=O)c2ccccc2OC(F)(F)F)CC1 [Compound 382] has what pIC50?
**Result** ≥ 5.70

====

target_or_test_system: UniProtKB Q15858
assay_name: E-VIPR optical membrane potential assay with electrical stimulation
condition_details: sodium channel inhibition; read-out: Binned Activity Data (IC50)
The following molecules are shown together with reported IC50 values.

Sample answers from the record:
{"molecule": "CC(C)(C)c1ccc(C(=O)N2CCC3(CC2)Oc2cc(Cl)ccc2-n2cccc23)cc1C#N", "result": "≤ 2 µM"}
{"molecule": "COc1cc(C(=O)N2CCC3(CC2)Oc2ccccc2-n2c([S+](C)[O-])ccc23)ccc1OC(C)(C)C (centres unmarked)", "result": "> 5 µM"}

**Query** Entry Cn1ncc2c1-c1ccccc1OC21CCN(C(=O)c2cccc(OC(F)(F)F)c2)CC1 has what IC50?
**Result** > 5 µM

**Query** Entry COc1cc(F)c(C(=O)N2CCC3(CC2)Oc2cc(Cl)ccc2-n2cccc23)cc1OC has what IC50?
**Result** ≤ 2 µM

**Query** Entry CC(C)Oc1ccc(C(=O)N2CCC3(CC2)Oc2ccccc2-c2c3cnn2C)c(OC(C)C)c1 has what IC50?
**Result** ≤ 2 µM

**Query** Entry Cc1cc(C(=O)N2CCC3(CC2)Oc2cc(C#N)ccc2-n2cccc23)ccc1OC(C)C has what IC50?
**Result** ≤ 2 µM

**Query** Entry Cn1ncc2c1-c1ccccc1OC21CCN(C(=O)c2ccc3c(c2)OC(C)(C)C3)CC1 has what IC50?
**Result** 2 to 5 µM

**Query** Entry Cc1ccc(C(=O)N2CCC3(CC2)Oc2ccccc2-n2c3ccc2S(C)(=O)=O)cc1Cl has what IC50?
**Result** ≤ 2 µM

====

target_or_test_system: human NaV 1.7 (Homo sapiens, UniProt Q15858)
Sequence (Q15858 whole entry): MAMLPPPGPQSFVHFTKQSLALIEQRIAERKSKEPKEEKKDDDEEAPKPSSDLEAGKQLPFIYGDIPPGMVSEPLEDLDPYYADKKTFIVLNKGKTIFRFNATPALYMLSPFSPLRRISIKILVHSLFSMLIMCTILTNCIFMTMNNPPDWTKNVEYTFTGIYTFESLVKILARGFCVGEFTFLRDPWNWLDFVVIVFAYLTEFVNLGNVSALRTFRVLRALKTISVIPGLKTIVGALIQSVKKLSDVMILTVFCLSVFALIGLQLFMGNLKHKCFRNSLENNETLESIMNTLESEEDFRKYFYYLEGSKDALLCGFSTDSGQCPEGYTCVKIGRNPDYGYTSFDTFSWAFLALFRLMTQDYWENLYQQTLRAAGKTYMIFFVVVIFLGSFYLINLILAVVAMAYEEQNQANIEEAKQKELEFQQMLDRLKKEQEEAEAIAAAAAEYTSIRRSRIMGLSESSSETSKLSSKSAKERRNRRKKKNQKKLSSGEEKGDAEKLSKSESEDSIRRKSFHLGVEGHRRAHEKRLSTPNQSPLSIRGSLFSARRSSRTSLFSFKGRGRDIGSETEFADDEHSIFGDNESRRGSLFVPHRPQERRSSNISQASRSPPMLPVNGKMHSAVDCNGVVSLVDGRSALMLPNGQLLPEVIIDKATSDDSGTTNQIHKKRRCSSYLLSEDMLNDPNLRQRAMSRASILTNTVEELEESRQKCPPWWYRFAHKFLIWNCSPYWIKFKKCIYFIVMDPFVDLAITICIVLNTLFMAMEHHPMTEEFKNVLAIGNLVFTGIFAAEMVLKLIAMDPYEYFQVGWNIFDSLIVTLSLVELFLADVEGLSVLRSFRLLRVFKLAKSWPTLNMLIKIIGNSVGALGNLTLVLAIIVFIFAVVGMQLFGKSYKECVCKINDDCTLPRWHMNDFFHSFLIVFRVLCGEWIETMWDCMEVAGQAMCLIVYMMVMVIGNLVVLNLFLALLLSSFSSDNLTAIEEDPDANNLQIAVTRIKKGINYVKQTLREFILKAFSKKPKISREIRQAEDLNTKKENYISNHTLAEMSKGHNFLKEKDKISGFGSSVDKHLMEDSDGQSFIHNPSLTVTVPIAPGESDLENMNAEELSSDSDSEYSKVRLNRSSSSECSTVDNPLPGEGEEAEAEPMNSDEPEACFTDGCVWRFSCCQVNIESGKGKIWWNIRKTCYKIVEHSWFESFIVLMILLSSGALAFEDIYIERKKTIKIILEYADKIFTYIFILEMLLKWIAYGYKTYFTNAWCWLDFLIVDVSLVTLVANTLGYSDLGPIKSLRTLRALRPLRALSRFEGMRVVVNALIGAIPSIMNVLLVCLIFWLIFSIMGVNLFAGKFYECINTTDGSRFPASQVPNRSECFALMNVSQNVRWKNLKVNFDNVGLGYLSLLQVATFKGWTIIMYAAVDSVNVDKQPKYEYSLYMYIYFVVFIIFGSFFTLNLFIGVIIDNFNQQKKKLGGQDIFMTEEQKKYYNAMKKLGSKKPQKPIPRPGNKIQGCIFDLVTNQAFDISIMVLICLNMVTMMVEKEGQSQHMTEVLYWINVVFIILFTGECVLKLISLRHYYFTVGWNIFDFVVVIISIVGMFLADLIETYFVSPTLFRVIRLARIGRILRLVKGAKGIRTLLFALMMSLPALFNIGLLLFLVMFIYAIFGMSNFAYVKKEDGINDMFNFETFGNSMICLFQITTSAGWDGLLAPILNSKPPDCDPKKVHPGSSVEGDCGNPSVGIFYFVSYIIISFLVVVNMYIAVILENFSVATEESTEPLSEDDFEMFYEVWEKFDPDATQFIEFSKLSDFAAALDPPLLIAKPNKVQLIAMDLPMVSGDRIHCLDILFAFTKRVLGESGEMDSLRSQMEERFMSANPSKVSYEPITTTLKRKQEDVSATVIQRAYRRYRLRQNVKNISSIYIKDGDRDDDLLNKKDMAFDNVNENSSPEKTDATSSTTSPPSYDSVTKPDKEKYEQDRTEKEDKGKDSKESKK
assay_name: E-VIPR optical membrane potential assay with electrical stimulation
condition_details: sodium channel inhibition; read-out: Binned Activity Data (IC50)
pIC50: −log10 of the molar value.
The following molecules are shown together with reported pIC50 values.

Sample answers from the record:
{"smiles": "Cc1cc(OC(F)(F)F)ccc1C(=O)N1CCC2(CC1)Oc1ccccc1-c1c2cnn1C", "pIC50": "5.30 to 5.70"}
{"smiles": "COc1ccc(C(=O)N2CCC3(CC2)Oc2ccccc2-c2c3cnn2C)c(OC)c1", "pIC50": "≥ 5.70"}
{"smiles": "CCOc1cccc(C(=O)N2CCC3(CC2)Oc2ccccc2-n2c3ccc2S(C)(=O)=O)c1F", "pIC50": "5.30 to 5.70"}
{"smiles": "Cc1cc(C)cc(C(=O)N2CCC3(CC2)Oc2cc(Cl)ccc2-n2cccc23)c1", "pIC50": "≥ 5.70"}
{"smiles": "COc1cc(C(=O)N2CCC3(CC2)Oc2ccccc2-n2cccc23)ccc1C(C)(C)OC", "pIC50": "≥ 5.70"}
{"smiles": "COc1cc(C(=O)N2CCC3(CC2)Oc2ccccc2-c2c3cnn2C)ccc1S(=O)(=O)C(C)C", "pIC50": "< 5.30"}

**Query** Entry CC(C)(CO)c1ccc(C(=O)N2CCC3(CC2)Oc2cc(Cl)ccc2-n2cccc23)cc1 has what pIC50?
**Result** ≥ 5.70

**Query** Entry COc1cc(C(=O)N2CCC3(CC2)Oc2cc(Cl)ccc2-n2cccc23)ccc1F has what pIC50?
**Result** ≥ 5.70

====

The following compounds are shown together with reported IC50 values.
target_or_test_system: UniProt:Q15858
assay_name: E-VIPR optical membrane potential assay with electrical stimulation
condition_details: sodium channel inhibition; read-out: Binned Activity Data (IC50)

Sample answers from the record:
{"compound": "Cc1ccc(OC(C)C)c(C(=O)N2CCC3(CC2)Oc2ccccc2-c2c3cnn2C)c1", "target_or_test_system": "UniProt:Q15858", "IC50": "≤ 2000 nM"}
{"compound": "CC(C)C(O)c1ccc(C(=O)N2CCC3(CC2)Oc2ccccc2-c2c3cnn2C)cc1 (centres unmarked)", "target_or_test_system": "UniProt:Q15858", "IC50": "≤ 2000 nM"}
{"compound": "COCCCOc1ccc(C(=O)N2CCC3(CC2)Oc2ccccc2-n2cccc23)cc1OC", "target_or_test_system": "UniProt:Q15858", "IC50": "≤ 2000 nM"}
{"compound": "COc1cc(C(=O)N2CCC3(CC2)Oc2cc(F)ccc2-n2cccc23)ccc1C(C)(C)C", "target_or_test_system": "UniProt:Q15858", "IC50": "≤ 2000 nM"}
{"compound": "CC(C)S(=O)(=O)c1ccc(C(=O)N2CCC3(CC2)Oc2ccccc2-n2c(C#N)ccc23)cc1", "target_or_test_system": "UniProt:Q15858", "IC50": "≤ 2000 nM"}

**Query** Entry CC(C)CCOc1ccc(C(=O)N2CCC3(CC2)Oc2ccccc2-c2c3cnn2C)cc1 has what IC50?
**Result** ≤ 2000 nM

**Query** Entry CCCOc1ccc(C(=O)N2CCC3(CC2)Oc2ccccc2-n2cccc23)cc1C(F)(F)F has what IC50?
**Result** ≤ 2000 nM

**Query** Entry COc1ccc(C(=O)N2CCC3(CC2)Oc2ccccc2-n2c(C(F)(F)F)ccc23)nc1 has what IC50?
**Result** ≤ 2000 nM

====

target_or_test_system: human NaV 1.7 (Homo sapiens, UniProt Q15858)
assay_name: E-VIPR optical membrane potential assay with electrical stimulation
condition_details: sodium channel inhibition; read-out: Binned Activity Data (IC50)
The following compounds are shown together with reported IC50 values.

Sample answers from the record:
{"smiles": "CC(C)n1ncc2c1-c1ccccc1OC21CCN(C(=O)c2ccc(S(=O)(=O)C(C)C)cc2)CC1", "IC50": "≤ 2000 nM"}
{"smiles": "CCn1ncc2c1-c1ccccc1OC21CCN(C(=O)c2cccc(F)c2OC(F)F)CC1", "IC50": "≤ 2000 nM"}
{"smiles": "CCCOc1ccc(C(=O)N2CCC3(CC2)Oc2ccccc2-n2cccc23)cc1C", "IC50": "≤ 2000 nM"}
{"smiles": "CNS(=O)(=O)c1ccc(C(=O)N2CCC3(CC2)Oc2ccccc2-c2nn(C)cc23)cc1C", "IC50": "≤ 2000 nM"}

**Query** Entry CCCOc1ccc(C(=O)N2CCC3(CC2)Oc2ccccc2-c2c3cnn2C)cc1C(F)(F)F has what IC50?
**Result** ≤ 2000 nM

**Query** Entry CCOc1cccc(C(=O)N2CCC3(CC2)Oc2ccccc2-c2c3cnn2C)c1F has what IC50?
**Result** 2000 to 5000 nM

**Query** Entry O=C(c1ccc(C2(O)COC2)cc1)N1CCC2(CC1)Oc1ccccc1-n1c(C(F)(F)F)ccc12 has what IC50?
**Result** ≤ 2000 nM

**Query** Entry Cc1nc(C(=O)N2CCC3(CC2)Oc2ccccc2-c2c3cnn2C)ccc1OC(C)C has what IC50?
**Result** ≤ 2000 nM

**Query** Entry CC(C)c1ccc(C(=O)N2CCC3(CC2)Oc2cc(Cl)ccc2-n2cccc23)c(=O)[nH]1 has what IC50?
**Result** ≤ 2000 nM

**Query** Entry CC(C)Oc1cccc(C(=O)N2CCC3(CC2)Oc2ccccc2-n2c(C#N)ccc23)c1F has what IC50?
**Result** ≤ 2000 nM

**Query** Entry COc1cc(C(=O)N2CCC3(CC2)Oc2cc(F)ccc2-n2cccc23)ccc1C1(O)COC1 has what IC50?
**Result** ≤ 2000 nM

**Query** Entry CC(=O)c1ccc2n1-c1ccccc1OC21CCN(C(=O)c2ccc(S(=O)(=O)NC3CC3)cc2)CC1 has what IC50?
**Result** ≤ 2000 nM

**Query** Entry COc1cc(C(=O)N2CCC3(CC2)Oc2cc(F)ccc2-n2cccc23)ccc1O[C@H]1CCOC1 has what IC50?
**Result** ≤ 2000 nM
